Observed IC50, system ENPP1 (hENPP1-ECD-His) (Homo sapiens (Human), UniProt P22413).
recorded.metric: IC50 (nM)

CCn1ncc2c(Oc3ccc(C(C)(C)C(=O)NO)cc3)ccnc21 = 2.9

[P] Cc1cc(Nc2ncnc3ccccc23)ccc1CC(=O)NO
[Q] COc1cc2nccc(Oc3ccc(C(C)(C)C(=O)NO)cc3)c2cn1
Looking at P and Q , which one comes out lower in IC50 terms? Selection: enter the item's label. Q
(Q: 1.5 nM, P: 36 nM)

[I] CC(C)(C(=O)NO)c1ccc(Oc2ccnc3cc(Cl)ccc23)cc1
[II] COc1ccc2c(Oc3ccc(C4(C(=O)NO)CCCOCC4)cc3)ccnc2n1 (stereo not shown)
[III] O=C(Cc1ccc(Nc2ncnc3ccccc23)cc1)NO
Put these in order: smallest IC50 first, largest last. Record the ranking as a list of labels in the requested order. II, III, I

---

Test: Preliminary pharmacokinetic testing in ICR mice (gavage 5 mg/kg, intravenous 1 mg/kg)
Format: in vivo
Conditions: male, mouse, oral administration (5 mg/kg), plasma, read-out: Cmax
recorded.metric: Cmax (ng/mL)

[I] COc1ccc2c(Oc3ccc(C(C)(C)C(=O)NO)cc3)ccnc2n1
[II] COc1ccc2c(Oc3ccc(C(C)(C)C(=O)NO)c(F)c3)ccnc2n1
[III] Cn1ncc2c(Nc3ccc(C(C)(C)C(=O)NO)cc3)ncnc21
[IV] COc1ccc2c(Oc3ccc(C4(C(=O)NO)CCOCC4)cc3)ccnc2n1
Output the listed items in decreasing order of Cmax. Arrange the labels as the request states and list them. II, I, IV, III

---

Assay: Preliminary pharmacokinetic testing in ICR mice (gavage 5 mg/kg, intravenous 1 mg/kg)
Format: in vivo
Details: male, mouse, oral administration (5 mg/kg), plasma
recorded.metric: half-life (h)

Solved entries:
COc1ccc2c(Oc3ccc(C(C)(C)C(=O)NO)cc3)ccnc2n1 [Compound 42] = 1.3
Cn1ncc2c(Nc3ccc(C(C)(C)C(=O)NO)cc3)ncnc21 [Compound 68] = 2.44

[P] COc1ccc2c(Oc3ccc(C4(C(=O)NO)CCOCC4)cc3)ccnc2n1 [Compound 107]
[Q] COc1ccc2c(Oc3ccc(C(C)(C)C(=O)NO)c(F)c3)ccnc2n1 [Compound 110]
Please indicate which has the smaller reported half-life: P , or Q . Let me know the label of the one you choose. P
(P: 2 h, Q: 3.9 h)

---

Target: ENPP1 (hENPP1-ECD-His) (Homo sapiens (Human), UniProt P22413)
Sequence (P22413 98-925): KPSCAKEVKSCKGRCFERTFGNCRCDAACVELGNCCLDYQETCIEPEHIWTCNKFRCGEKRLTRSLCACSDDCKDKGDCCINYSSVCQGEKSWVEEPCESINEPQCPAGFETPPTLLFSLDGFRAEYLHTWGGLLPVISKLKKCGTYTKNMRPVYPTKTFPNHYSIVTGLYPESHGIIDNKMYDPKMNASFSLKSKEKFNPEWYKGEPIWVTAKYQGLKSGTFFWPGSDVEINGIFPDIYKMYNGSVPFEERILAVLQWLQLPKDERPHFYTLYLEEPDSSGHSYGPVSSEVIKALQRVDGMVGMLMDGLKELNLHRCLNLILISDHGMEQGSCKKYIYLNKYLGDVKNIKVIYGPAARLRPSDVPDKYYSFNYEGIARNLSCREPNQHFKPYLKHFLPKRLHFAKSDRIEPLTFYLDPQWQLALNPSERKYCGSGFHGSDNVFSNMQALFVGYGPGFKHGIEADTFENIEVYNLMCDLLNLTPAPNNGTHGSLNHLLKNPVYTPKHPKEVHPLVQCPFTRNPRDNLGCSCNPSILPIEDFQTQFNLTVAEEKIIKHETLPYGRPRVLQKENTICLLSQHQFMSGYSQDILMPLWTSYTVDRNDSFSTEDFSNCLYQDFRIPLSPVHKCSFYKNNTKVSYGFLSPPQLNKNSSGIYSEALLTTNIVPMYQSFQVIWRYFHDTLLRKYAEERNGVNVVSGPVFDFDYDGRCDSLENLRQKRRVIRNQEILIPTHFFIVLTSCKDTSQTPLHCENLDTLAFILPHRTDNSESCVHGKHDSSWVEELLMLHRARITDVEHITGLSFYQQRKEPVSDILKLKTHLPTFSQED
recorded.metric: IC50 (nM)

COc1ccc2c(O[C@H]3CCN(C(C)(C)C(=O)NO)C3)ccnc2n1 = 39

[A] COc1ccc2c(Nc3ccc(C(C(=O)NO)C(C)C)c(F)c3)ccnc2n1 (stereo not drawn)
[B] COc1ccc2c(Nc3ccc(C(C)(C)C(=O)NO)nc3)ccnc2n1
[C] CCn1ncc2c(Nc3ccc(C4(C(=O)NO)CCOCC4)cc3)ccnc21
[D] COc1cc2ncnc(Oc3ccc(CC(=O)NO)cc3)c2cc1OC
# rank by IC50, ascending (min first) # format: label list in the order the request specifies B, C, A, D
(B: 1.6 nM, C: 2.9 nM, A: 15 nM, D: 28 nM)

---

Biological target: ENPP1 (hENPP1-ECD-His) (Homo sapiens (Human), UniProt P22413)
Assay: biochemical
recorded.metric: IC50 (nM)

# annotated cases, reported IC50 shown
COc1ccc2c(Oc3ccc(C(F)C(=O)NO)cc3)ccnc2n1 (stereo not drawn) = 5.3
CNc1ccc2c(Oc3ccc(C(C)(C)C(=O)NO)cc3)ccnc2c1 = 389
COc1ccc2c(Oc3cnn(C(C)(C)C(=O)NO)c3)ccnc2n1 = 28

[I] CC(C)C(C(=O)NO)c1ccc(Nc2ncnc3c2cnn3C)cc1 (stereo not drawn)
[II] COc1cc2nccc(Nc3cnn(C4(C(=O)NO)CCOCC4)c3)c2cn1
[III] CCOC(C(=O)NO)c1ccc(Oc2ccnc3nc(OC)ccc23)cc1 (stereo not drawn)
hey, can you rank those molecules up there by IC50? biggest number first please The reply should contain the labels ordered as requested. I, II, III
(I: 317 nM, II: 6.8 nM, III: 3.7 nM)

Entry source: patent US20240383893A1
